- TARGET_ENTITY: HLA DRB5 01:01 (Homo sapiens, UniProt P01903+Q30154)
- ASSAY_TEXT: Competitive binding assay of overlapping peptides to HLA
- SETTINGS: competitive binding to HLA DRB5 01:01, compared with reference H1N1 influenza peptide
OUTCOME_MEASURE: Binding affinity

INSERT INTO assay_data (substance, result) VALUES
  ('Aa 63-77-SEQ ID NO: 2 (KLGDSCHPLTRKNNF; listed as Homo sapiens) [PROK2 #8]', '−'),
  ('Aa 106-120-SEQ ID NO: 1 (VREIKDGKMVMVSND; listed as Homo sapiens) [FABP7 #25]', '−'),
  ('Aa 87-101-SEQ ID NO: 1 (LDGDKLVHIQKWDGK; listed as Homo sapiens) [FABP7 #18]', '−'),
  ('Aa 111-125-SEQ ID NO: 1 (DGKMVMVSNDNSPFF; listed as Homo sapiens) [FABP7 #26]', '+');

---

- TARGET_ENTITY: HLA DRB5 01:01 (Homo sapiens, UniProt P01903+Q30154)
- ASSAY_TEXT: Competitive binding assay of overlapping peptides to HLA
- SETTINGS: competitive binding to HLA DRB5 01:01, compared with reference H1N1 influenza peptide
OUTCOME_MEASURE: Binding affinity

INSERT INTO results (substance, result) VALUES
  ('Aa 68-82-SEQ ID NO: 2 (CHPLTRKNNFGNGRQ; listed as Homo sapiens) [PROK2 #9]', '+'),
  ('Aa 02-16-SEQ ID NO: 1 (VEAFCATWKLTNSQN; listed as Homo sapiens) [FABP7 #1]', '+'),
  ('Aa 52-66-SEQ ID NO: 1 (IRTLSTFKNTEISFQ; listed as Homo sapiens) [FABP7 #11]', '−'),
  ('Aa 57-71-SEQ ID NO: 1 (TFKNTEISFQLGEEF; listed as Homo sapiens) [FABP7 #12]', '−'),
  ('Aa 93-107-SEQ ID NO: 2 (KKEVPFFGRRMHHTC; listed as Homo sapiens) [PROK2 #14]', '+'),
  ('Aa 07-21-SEQ ID NO: 1 (ATWKLTNSQNFDEYM; listed as Homo sapiens) [FABP7 #2]', '+'),
  ('Aa 146-160-SEQ ID NO: 1 (PFFLLPSFFNNTSLA; listed as Homo sapiens) [FABP7 #33]', '++'),
  ('Aa 107-121-SEQ ID NO: 6 (REIKDGKMVMTLTFG; listed as Homo sapiens) [FABP7 #22]', '−'),
  ('Aa 37-51-SEQ ID NO: 1 (TKPTVIISQEGDKVV; listed as Homo sapiens) [FABP7 #8]', '−'),
  ('Aa 115-129-SEQ ID NO: 2 (CLRTSFNRFICLAQK; listed as Homo sapiens) [PROK2 #21]', '+'),
  ('Aa 72-86-SEQ ID NO: 1 (DETTADDRNCKSVVS; listed as Homo sapiens) [FABP7 #15]', '−');
